Measured growth of individual entries
- Tested on: HCC-2998 colon
- measurementNotes: NCI-60 one-dose screen, 48 h (100 = growth as untreated, 0 = no growth, -100 = all killed)
- runConditions: 10 µM unless noted
This is part of a sample that, as a whole, favours compounds with a hit. Of some 83,000 tested, about 20% had one in any assay.
Give the number; % is assumed, so skip it.

Before answering, review these 3 worked examples.
compound	growth, %
COc1ccc2c(c1)C1(C)CCN(C)CC(C1)C2O (configuration not stated)	89.9
C[C@]12CCC(=O)C[C@@H]1CC[C@@H]1[C@@H]2CC[C@]2(C)[C@@H](OC(=O)N(CCCl)N=O)CC[C@@H]12	44.6
CC/C(Cc1ccccc1)=C(\c1ccc(OCCN2CCCC2)cc1)c1ccc(OC(=O)NCc2ccccc2)cc1	83.1

[ask] Give the value of growth reported for the following: CCCC(C)SP(=S)(SC(C)CCC)SC(C)CCC (configuration not stated)
[reply] 91.5

[ask] Give the value of growth reported for the following: COCC1OC2OC3C(COC)OC(OC4C(COC)OC(OC5C(COC)OC(OC6C(COC)OC(OC7C(COC)OC(OC8C(COC)OC(OC1C(O)C2O)C(O)C8O)C(O)C7O)C(O)C6O)C(O)C5O)C(O)C4O)C(O)C3O (configuration not stated) (tested in a mixture with another compound)
[reply] 89.4

[ask] Give the value of growth reported for the following: COc1ccc2c(c1)c(-c1nc(-c3cn(C)c4ncccc34)cs1)cn2CCCCN1CCOCC1
[reply] 7.68

[ask] Give the value of growth reported for the following: C[C@]12CCc3sc(Nc4ccc(O)cc4)nc3C1=CC[C@@H]1[C@@H]2CC[C@]2(C)C(=O)CC[C@@H]12
[reply] 97.7

###

Measured growth of individual entries
- Test system: PC-3 prostate
- measurementNotes: NCI-60 one-dose screen, 48 h (100 = growth as untreated, 0 = no growth, -100 = all killed)
- runConditions: 10 µM unless noted
- Protocol: Growth inhibition of the PC-3 human tumor cell line is measured as a screen for anti-cancer activity. Cells are grown in 96 well plates and exposed to the test compound for 48 hours. Compounds are tested at a single concentration, which is 10^-5 M for most compounds. The reported endpoint is percent growth (GI% or GIPRCNT), where numbers from 0 - 100% represent growth inhibition, and numbers from -100% - 0 represent cell death. For example, a value of 40 represents 60% growth inhibition. […]
Compounds without any hit were thinned out: in the full panel of roughly 83,000, 20% have a hit.
Give the number; % is assumed, so skip it.

Before answering, review these 5 worked examples.
molecule	growth, %
O=NN1CCCCC1	110
N#CC(C#N)=Cc1cccc(F)c1	100
Cc1cc[c-]cc1.Fc1c[c-]c(-c2ccccn2)c(F)c1.N#CCC[PH+](CCC#N)c1ccccc1.[Pt+2]	29.4
NC(=O)Oc1cc(OC(N)=O)cc(N(CCCl)CCCl)c1	71.7
NC1CN2CCC1CC2 (stereo unspecified)	90.7

Turning now to a further molecule:
[ask] Give the value of growth reported for the following: C[C@]12CCc3sc(Nc4ccc(O)cc4)nc3C1=CC[C@@H]1[C@@H]2CC[C@]2(C)C(=O)CC[C@@H]12
[reply] 39.1

###

- System: SK-MEL-28 melanoma
- measurementNotes: NCI-60 one-dose screen, 48 h
- runConditions: 10 µM unless noted
The panel holds about 83,000 compounds, 20% with a hit somewhere; the sample as a whole holds those more often. The source made the active and inactive calls. The calls were made as follows: active = growth percent below 10; inactive = the rest.
Answer with one of the outcomes given here: T (active), F (inactive)

Illustrative cases are given below, each with its answer.
compound	answerLabel
C[C@]12CCc3nc(-c4ccc(O)c(O)c4)sc3C1=CC[C@@H]1[C@@H]2CC[C@]2(C)C(=O)CC[C@@H]12	F
OCCNC1CCCCC1	F
Cc1c(C)c(N)c(C)c(C)c1N	F
OCCN=Cc1c[nH]c2ccccc12	F
C[C@]12CCc3sc(Nc4ccc(F)cc4F)nc3C1=CC[C@@H]1[C@@H]2CC[C@]2(C)C(=O)CC[C@@H]12	F

[ask] Assay result, entry CC(=O)c1cccc(S(=O)(=O)F)c1 — outcome?
[reply] F

[ask] Assay result, entry Cc1ccc(S(=O)(=O)n2cc([C@@]3(O)C[C@H](CSC#N)OC3=O)c3ccccc32)cc1 — outcome?
[reply] F

[ask] Assay result, entry N#CC(NC(=O)CCl)=C(Cl)Cl — outcome?
[reply] T

[ask] Assay result, entry CO[C@@H]([CH2][Hg][O]C(=O)c1ccccc1)[C@@H]([CH2][Hg][O]C(=O)c1ccccc1)OC — outcome?
[reply] F

[ask] Assay result, entry ClCc1ccc(Cl)c(Cl)c1 — outcome?
[reply] F

[ask] Assay result, entry CC[C@H](C)[C@H](NC(=O)CN(C)C)C(=O)N(C)[C@H](C[C@@H](OC(C)=O)c1nc(C(=O)NC23C4C5C2C2C3C4C52C(=O)OC)cs1)C(C)C (stereo partly drawn) — outcome?
[reply] F

[ask] Assay result, entry O=C(O)C(Br)CBr (stereo not drawn) — outcome?
[reply] F

[ask] Assay result, entry Cc1ccc(N2CCN(CCC#N)CC2)cc1 — outcome?
[reply] F

[ask] Assay result, entry CCOP(=O)(OCC)C(=O)N(CC)CC — outcome?
[reply] F

[ask] Assay result, entry COC(=O)C12C3C4C1C1C2C3C41NC(=O)c1csc([C@@H](C[C@H](C(C)C)N(C)C(=O)[C@@H](NC(=O)[C@H]2CCCCN2C)C2CC2)OC(C)=O)n1 (stereo partly drawn) — outcome?
[reply] F

[ask] Assay result, entry CCN1C(=O)CC(=O)N(CC)C1=S — outcome?
[reply] F

[ask] Assay result, entry CN1[C@@H](CC(=O)c2ccccc2)CCC[C@H]1CC(=O)c1ccccc1 — outcome?
[reply] F

[ask] Assay result, entry CCC(=O)C(CC(C)N1CCCCCC1)(c1ccccc1)c1ccccc1 (stereo not drawn) — outcome?
[reply] F

[ask] Assay result, entry O=S1(=O)OCCO1 — outcome?
[reply] F

[ask] Assay result, entry O=C(Cc1ccccc1)NC(O)C(Cl)(Cl)Cl (stereo not drawn) — outcome?
[reply] F

[ask] Assay result, entry C[N+]1(CC#CC[N+]2(C)CCCC2)CCCC1 — outcome?
[reply] F

[ask] Assay result, entry C#Cc1cccc(Nc2nc(Cl)nc3cc(NC(=O)CF)ccc23)c1 — outcome?
[reply] F

[ask] Assay result, entry O=C(Cc1ccccc1)c1ccccc1 — outcome?
[reply] F

###

- Test system: SN12C renal
- measurementNotes: NCI-60 one-dose screen, 48 h (100 = growth as untreated, 0 = no growth, -100 = all killed)
- runConditions: 10 µM unless noted
About 83,000 compounds went through this panel and 20% of them were active in at least one assay; those are over-represented in the sample as a whole.
outcomeMeasure: growth (%)
Give the number; % is assumed, so skip it.

compound	resultUnits	numericValue
C[N+]12CCC34C5=CC(=O)C(=O)C=C5[N+]5(C)C(=O)CC6OCC=C(C1)C(CC32)C6C45 (stereo unspecified)	%	105

[ask] Give the value of growth reported for the following: C[C@]12CCc3sc(Nc4ccc(F)cc4F)nc3C1=CC[C@@H]1[C@@H]2CC[C@]2(C)C(=O)CC[C@@H]12
[reply] 64.1

[ask] Give the value of growth reported for the following: CCN1C(=O)NC(=O)C(C)(N2C(=O)c3c(F)c(F)c(F)c(F)c3C2=O)C1=O (stereo unspecified)
[reply] 33.6

[ask] Give the value of growth reported for the following: COc1ccc(N)cc1N
[reply] 101

[ask] Give the value of growth reported for the following: CCOP(=O)(OCC)C(=O)N(CC)CC
[reply] 103

###

- Tested on: T-47D breast
- measurementNotes: NCI-60 one-dose screen, 48 h (100 = growth as untreated, 0 = no growth, -100 = all killed)
- runConditions: 10 µM unless noted
The panel holds about 83,000 compounds, 20% with a hit somewhere; the sample as a whole holds those more often.
Quick rule: growth of at least 90% means Satisfied, below that means Not satisfied.

Illustrative cases are given below, each with its answer.
compound	answerLabel
O=C(NCCCN1CC1)Nc1cccc2ccccc12	Not satisfied
Cc1ccccc1-n1c(/C=C\c2ccccn2)nc2ccccc2c1=O	Not satisfied
C[N+]12CCC34C5=CC(=O)C(=O)C=C5[N+]5(C)C(=O)CC6OCC=C(C1)C(CC32)C6C45 (centres undefined)	Satisfied
NC(=O)Oc1cc(OC(N)=O)cc(N(CCCl)CCCl)c1	Not satisfied

Now examine the next entry.
[ask] Kindly determine if growth recorded for C[C@@H]1C/C=C\C(=O)O[C@H](/C=C/C#C/C=C/C(C)(C)[C@@H](O)c2cccc(O)c2Br)[C@@H](C)/C=C/[C@H](C)C[C@H](OC(N)=O)C1 is above or exactly 90%.
[reply] Not satisfied

###

- System: IGROV1 ovarian
- measurementNotes: NCI-60 one-dose screen, 48 h (100 = growth as untreated, 0 = no growth, -100 = all killed)
- runConditions: 10 µM unless noted
About 83,000 compounds went through this panel and 20% of them were active in at least one assay; those are over-represented in the sample as a whole. Calls of active or inactive are those of the source. The calls were made as follows: active = growth percent below 10; inactive = the rest.
outcomeMeasure: growth

Before answering, review these 5 worked examples.
molecule	result
COC12CC3(C)C(C4=CC(=O)OC4)CCC3(O)C3CCC4=CC(=O)CCC4(CO1)C32 (stereo not given)	98.6% (inactive)
COC[C@H]1OC(=O)c2coc3c2[C@@]1(C)C1=C(C3=O)[C@@H]2CCC(=O)[C@@]2(C)C[C@H]1OC(C)=O	-28% (active)
CC[C@H](C)[C@H](NC(=O)c1ncccn1)C(=O)N(C)[C@H](C[C@@H](OC(C)=O)c1nc(C(=O)N[C@@H](Cc2ccccc2)C[C@H](C)C(=O)OC)cs1)C(C)C	49.5% (inactive)
C[C@]12CCc3nc(-c4ccc(O)c(O)c4)sc3C1=CC[C@@H]1[C@@H]2CC[C@]2(C)C(=O)CC[C@@H]12	38.6% (inactive)
O=C/C=C/c1ccco1	106% (inactive)

Turning now to a further molecule:
[ask] // fetch growth for COc1ccc(N(CC(=O)NCCC[Te]c2ccccc2)C(=O)c2ccccc2)cc1 ; system: IGROV1 ovarian
[reply] 15.4% (inactive)

This collection of values is drawn from PubChem BioAssay (NCI).
